# Species on record: Rattus norvegicus
# METHOD: Compound was tested in vitro for its ability to inhibit histamine release from rat mast cells.
# Format: functional
# ASSAY SETUP: read-out: ED50 (the source's name)

{"SMILES CODE": "CC(=O)N[C@H](Cc1ccc2ccccc2c1)C(=O)N[C@H](Cc1ccc(F)cc1)C(=O)N[C@H](Cc1c[nH]c2ccccc12)C(=O)N[C@@H](CO)C(=O)N[C@@H](Cc1ccc(O)cc1)C(=O)N[C@H](CCCN=C(N)N)C(=O)N[C@@H](CC(C)C)C(=O)N[C@@H](CCCN=C(N)N)C(=O)N1CCC[C@H]1C(=O)NCC(=O)O", "EC50, µg/mL": 0.17}
{"SMILES CODE": "CC(=O)N1CCC[C@@H]1C(=O)N[C@H](Cc1ccc(F)cc1)C(=O)N[C@H](Cc1c[nH]c2ccccc12)C(=O)N[C@@H](CO)C(=O)N[C@@H](Cc1ccc(O)cc1)C(=O)N[C@H](Cc1c[nH]c2ccccc12)C(=O)N[C@@H](CC(C)C)C(=O)N[C@@H](CCCN=C(N)N)C(=O)N1CCC[C@H]1C(=O)NCC(=O)O", "EC50, µg/mL": 39}
{"SMILES CODE": "CC(=O)N[C@H](Cc1ccc2ccccc2c1)C(=O)N[C@H](Cc1ccc(Cl)cc1)C(=O)N[C@H](Cc1cccnc1)C(=O)N[C@@H](CO)C(=O)N[C@@H](CCCN=C(N)N)C(=O)N[C@H](Cc1c[nH]c2ccccc12)C(=O)N[C@@H](CC(C)C)C(=O)N[C@@H](CCCN=C(N)N)C(=O)N1CCC[C@H]1C(=O)N[C@H](C)C(=O)O", "EC50, µg/mL": 2.1}

* * *

# Organism: Rattus norvegicus
# METHOD: Compound was tested in vitro for its ability to inhibit histamine release from rat mast cells.
# Format: functional
# ASSAY SETUP: read-out: ED50 (the source's name)
The following molecules are listed with their measured EC50 values.

{"SMILES CODE": "COc1ccc(C(=O)CC[C@@H](NC(=O)[C@H](Cc2ccc(O)cc2)NC(=O)[C@H](CO)NC(=O)[C@@H](Cc2cccnc2)NC(=O)[C@@H](Cc2ccc(Cl)cc2)NC(=O)[C@H]2CCCN2C(C)=O)C(=O)N(C)[C@@H](CC(C)C)C(=O)N[C@@H](CCCN=C(N)N)C(=O)N2CCC[C@H]2C(=O)N[C@H](C)C(=O)O)cc1", "EC50 (µg/mL)": 30.3}
{"SMILES CODE": "COc1ccc(C(=O)CC[C@@H](NC(=O)[C@H](CCCN=C(N)N)NC(=O)[C@H](CO)NC(=O)[C@@H](Cc2cccnc2)NC(=O)[C@@H](Cc2ccc(Cl)cc2)NC(=O)[C@@H](Cc2ccc3ccccc3c2)NC(C)=O)C(=O)N[C@@H](CC(C)C)C(=O)N[C@@H](CCCN=C(N)N)C(=O)N2CCC[C@H]2C(=O)N[C@H](C)C(=O)O)cc1", "EC50 (µg/mL)": 1.6}

* * *

# Species on record: Rattus norvegicus
# METHOD: Compound was tested in vitro for its ability to inhibit histamine release from rat mast cells.
# Assay type: functional
# ASSAY SETUP: read-out: ED50 (the source's name)
ASSAY METRIC: EC50 (µg/mL)

{"SMILES CODE": "CC(=O)N[C@H](Cc1ccc2ccccc2c1)C(=O)N[C@H](Cc1ccc(Cl)cc1)C(=O)N[C@H](Cc1cccnc1)C(=O)N[C@@H](CO)C(=O)N[C@@H](CCCN=C(N)N)C(=O)N[C@H](Cc1ccc2ccccc2c1)C(=O)N[C@@H](CC(C)C)C(=O)N[C@@H](CCCN=C(N)N)C(=O)N1CCC[C@@H]1C(=O)N[C@H](C)C(=O)O", "ASSAY METRIC": "EC50", "ENDPOINT VALUE": 1.9}
{"SMILES CODE": "COc1ccc(C(=O)CC[C@@H](NC(=O)[C@H](CCCN=C(N)N)NC(=O)[C@H](CO)NC(=O)[C@@H](Cc2cccnc2)NC(=O)[C@@H](Cc2ccc(Cl)cc2)NC(=O)[C@@H](Cc2ccc3ccccc3c2)NC(C)=O)C(=O)N(C)[C@@H](CC(C)C)C(=O)N[C@@H](CCCN=C(N)N)C(=O)N2CCC[C@H]2C(=O)N[C@H](C)C(N)=O)cc1", "ASSAY METRIC": "EC50", "ENDPOINT VALUE": 4.6}

* * *

# Species: Rattus norvegicus
# METHOD: Compound was tested in vitro for its ability to inhibit histamine release from rat mast cells.
# Type: functional
# ASSAY SETUP: read-out: ED50 (the source's name)
The following compounds are listed with their measured EC50 values.

{"SMILES CODE": "CC(=O)N[C@H](Cc1ccc2ccccc2c1)C(=O)N[C@H](Cc1ccc(Cl)cc1)C(=O)N[C@H](Cc1cccnc1)C(=O)N[C@@H](CO)C(=O)N[C@@H](CCCN=C(N)N)C(=O)N[C@H](Cc1cn(Cc2ccccc2)cn1)C(=O)N[C@@H](CC(C)C)C(=O)N[C@@H](CCCN=C(N)N)C(=O)N1CCC[C@H]1C(=O)N[C@H](C)C(N)=O", "EC50": "4.4 µg/mL"}
{"SMILES CODE": "CC(=O)N[C@H](Cc1ccc2ccccc2c1)C(=O)N[C@H](Cc1ccc(Cl)cc1)C(=O)N[C@H](Cc1cccnc1)C(=O)N[C@@H](CO)C(=O)N[C@@H](CCCN=C(N)N)C(=O)N[C@H](Cc1cn(C=O)c2ccccc12)C(=O)N[C@@H](CC(C)C)C(=O)N[C@@H](CCCN=C(N)N)C(=O)N1CCC[C@H]1C(=O)N[C@H](C)C(=O)O", "EC50": "3.4 µg/mL"}
{"SMILES CODE": "COc1ccc(C(=O)CC[C@@H](NC(=O)[C@H](CCCN=C(N)N)NC(=O)[C@H](CO)NC(=O)[C@@H](Cc2cccnc2)NC(=O)[C@@H](Cc2ccc(Cl)cc2)NC(=O)[C@@H](Cc2ccc3ccccc3c2)NC(C)=O)C(=O)N[C@@H](CC(C)C)C(=O)N[C@@H](CCCN=C(N)N)C(=O)N2CCC[C@H]2C(=O)NCC(=O)O)cc1", "EC50": "3.2 µg/mL"}

* * *

# Species on record: Rattus norvegicus
# METHOD: Compound was tested in vitro for its ability to inhibit histamine release from rat mast cells.
# Type: functional
# ASSAY SETUP: read-out: ED50 (the source's name)

{"SMILES CODE": "CC(=O)N[C@H](Cc1ccc2ccccc2c1)C(=O)N[C@H](Cc1ccc(Cl)cc1)C(=O)N[C@H](Cc1cccnc1)C(=O)N[C@@H](CO)C(=O)N[C@@H](CCCN=C(N)N)C(=O)N[C@H](Cc1c[nH]c2cc([N+](=O)[O-])ccc12)C(=O)N[C@@H](CC(C)C)C(=O)N[C@@H](CCCN=C(N)N)C(=O)N1CCC[C@H]1C(=O)N[C@H](C)C(=O)O", "UNIT SYMBOL": "µg/mL", "EC50": 2.7}
{"SMILES CODE": "CC(=O)N[C@H](Cc1ccc2ccccc2c1)C(=O)N[C@H](Cc1ccc(Cl)cc1)C(=O)N[C@H](Cc1cccnc1)C(=O)N[C@@H](CO)C(=O)N[C@@H](CCCN=C(N)N)C(=O)N[C@H](CCC(=O)O)C(=O)N[C@@H](CC(C)C)C(=O)N[C@@H](CCCN=C(N)N)C(=O)N1CCC[C@H]1C(=O)N[C@H](C)C(=O)O", "UNIT SYMBOL": "µg/mL", "EC50": 17}
{"SMILES CODE": "CC(=O)N[C@H](Cc1ccc2ccccc2c1)C(=O)N[C@H](Cc1ccc(Cl)cc1)C(=O)N[C@H](Cc1cccnc1)C(=O)N[C@@H](CO)C(=O)N[C@@H](CCCN=C(N)N)C(=O)N[C@H](Cc1ccc(O)cc1)C(=O)N[C@@H](CC(C)C)C(=O)N[C@@H](CCCN=C(N)N)C(=O)N1CCC[C@H]1C(=O)N[C@H](C)C(N)=O", "UNIT SYMBOL": "µg/mL", "EC50": 3.7}
{"SMILES CODE": "CC(=O)N[C@H](Cc1ccc2ccccc2c1)C(=O)N[C@H](Cc1ccc(Cl)cc1)C(=O)N[C@H](Cc1cccnc1)C(=O)N[C@@H](CO)C(=O)N[C@@H](CCCN=C(N)N)C(=O)N[C@H](Cc1cccnc1)C(=O)N[C@@H](CC(C)C)C(=O)N[C@@H](CCCN=C(N)N)C(=O)N1CCC[C@H]1C(=O)N[C@H](C)C(=O)O", "UNIT SYMBOL": "µg/mL", "EC50": 2.9}

* * *

# MEASURED TARGET: Gonadotropin-releasing hormone receptor (Rattus norvegicus)
# Sequence (whole entry): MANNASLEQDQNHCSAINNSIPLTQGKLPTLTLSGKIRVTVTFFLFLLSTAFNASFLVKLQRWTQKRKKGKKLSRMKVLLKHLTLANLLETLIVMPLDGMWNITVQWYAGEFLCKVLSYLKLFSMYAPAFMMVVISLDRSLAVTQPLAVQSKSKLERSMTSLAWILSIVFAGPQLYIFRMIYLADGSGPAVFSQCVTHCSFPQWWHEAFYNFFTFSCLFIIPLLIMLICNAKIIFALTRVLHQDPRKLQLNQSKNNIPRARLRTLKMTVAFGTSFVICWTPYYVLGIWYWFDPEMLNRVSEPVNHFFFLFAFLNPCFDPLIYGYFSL
# METHOD: Inhibition of GnRH-mediated LH secretion by cultured pituitary cells
# Type: functional, cell-based
# ASSAY SETUP: Pituitary gland cell
ASSAY METRIC: Relative potency

{"SMILES CODE": "CC(=O)N[C@H](Cc1ccc2ccccc2c1)C(=O)N[C@H](Cc1ccc(Cl)cc1)C(=O)N[C@H](Cc1cccnc1)C(=O)N[C@@H](CO)C(=O)N[C@@H](CCCN=C(N)N)C(=O)N[C@H](Cc1cn(C=O)c2ccccc12)C(=O)N[C@@H](CC(C)C)C(=O)N[C@@H](CCCN=C(N)N)C(=O)N1CCC[C@H]1C(=O)N[C@H](C)C(=O)O", "ASSAY METRIC": "Relative potency", "ENDPOINT VALUE": 0.95}
{"SMILES CODE": "CC(=O)N[C@H](Cc1ccc2ccccc2c1)C(=O)N[C@H](Cc1ccc(Cl)cc1)C(=O)N[C@H](Cc1cccnc1)C(=O)N[C@@H](CO)C(=O)N[C@@H](CCCN=C(N)N)C(=O)N[C@H](CCC(=O)O)C(=O)N[C@@H](CC(C)C)C(=O)N[C@@H](CCCN=C(N)N)C(=O)N1CCC[C@@H]1C(=O)N[C@H](C)C(=O)O", "ASSAY METRIC": "Relative potency", "ENDPOINT VALUE": 0.09}
{"SMILES CODE": "CC(=O)N[C@H](Cc1ccc2ccccc2c1)C(=O)N[C@H](Cc1ccc(Cl)cc1)C(=O)N[C@H](Cc1cccnc1)C(=O)N[C@@H](CO)C(=O)N[C@@H](CCCN=C(N)N)C(=O)N[C@H](Cc1cccnc1)C(=O)N[C@@H](CC(C)C)C(=O)N[C@@H](CCCN=C(N)N)C(=O)N1CCC[C@H]1C(=O)N[C@H](C)C(=O)O", "ASSAY METRIC": "Relative potency", "ENDPOINT VALUE": 0.91}
{"SMILES CODE": "COc1ccc(C(=O)CC[C@@H](NC(=O)[C@H](CCCN=C(N)N)NC(=O)[C@H](CO)NC(=O)[C@@H](Cc2cccnc2)NC(=O)[C@@H](Cc2ccc(Cl)cc2)NC(=O)[C@@H](Cc2ccc3ccccc3c2)NC(C)=O)C(=O)N[C@@H](CC(C)C)C(=O)N[C@@H](CCCN=C(N)N)C(=O)N2CCC[C@H]2C(=O)N[C@H](C)C(=O)O)cc1", "ASSAY METRIC": "Relative potency", "ENDPOINT VALUE": 1.01}
{"SMILES CODE": "CC(=O)N[C@H](Cc1ccc2ccccc2c1)C(=O)N[C@H](Cc1ccc(Cl)cc1)C(=O)N[C@H](Cc1cccnc1)C(=O)N[C@@H](CO)C(=O)N[C@@H](CCCN=C(N)N)C(=O)N[C@H](Cc1c[nH]c2ccccc12)C(=O)N[C@@H](CC(C)C)C(=O)N[C@@H](CCCN=C(N)N)C(=O)N1CCC[C@H]1C(=O)N[C@H](C)C(=O)O", "ASSAY METRIC": "Relative potency", "ENDPOINT VALUE": 0.44}

Reference source: ChEMBL document CHEMBL1123223
